composite z-score by entry:
Tested on: Inhibin beta A chain (activin A)
protocol.details: INHBA (activin A) binders on microarrays, primary screen, biochemical, small-molecule microarray, 635 nm fluorescence scan (AID 1107);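 also: mouse activin A protein probed at 4.33 µg/mL on printed slides; score merges bound-protein fluorescence near 667 nm with spot signal-to-noise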
conditions.used: small-molecule microarray binding, higher = more signal
parameter.measured: composite z-score

O=C1O[C@H](c2ccccc2)[C@H](c2ccccc2)N2[C@H]1[C@@H](C(=O)O)[C@]1(C(=O)Nc3ccc(C#CC4=CCCCC4)cc31)[C@H]2c1ccccc1OCCO	1.01
CCCCc1cn(C[C@H](Cc2ccccc2)NC(=O)N[C@H](CO)CCc2oc(C(C)=O)c(C(=O)OC)c2C(=O)OC)nn1	-0.0075
[N-]=[N+]=NCc1ccccc1C[C@]1(C(=O)O)N=C(c2ccc(OCCCO)cc2)O[C@H]1c1ccccc1N=[N+]=[N-]	0.303
CC(C)(C)OC(=O)CC[C@]1(C(=O)NCC(O)CO)COC(c2ccc(OCCCO)cc2)=N1 (some centres not stated)	0.173
[N-]=[N+]=NCc1ccccc1[C@@H]1OC(c2ccc(OCCCO)cc2)=N[C@]1(CCS(=O)(=O)c1ccccc1)C(=O)NCCN1CCOCC1	0.745
O=C(O)[C@@]1(CCS(=O)(=O)c2ccccc2)COC(c2ccc(OCCCO)cc2)=N1	1.19
COC(=O)[C@@]1(Cc2ccc(OC)cc2)[C@H]2c3cc(C(=O)N4CCCC4)n(Cc4ccsc4Br)c3C[C@H]2CN1C(=O)c1ccccc1	0.741

###

Test system: Inhibin beta A chain (activin A)
protocol.details: INHBA (activin A) binders on microarrays, primary screen, biochemical, small-molecule microarray, 635 nm fluorescence scan (AID 1107);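 also: mouse activin A protein probed at 4.33 µg/mL on printed slides; score merges bound-protein fluorescence near 667 nm with spot signal-to-noise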
conditions.used: small-molecule microarray binding, higher = more signal
Please enter condition met where composite z-score is greater than or equal to 0.3, and condition not met where it is lower.

COCCOC(=O)N1C(=O)[C@@]2(c3cc(C#Cc4ccc(OC)cc4)ccc31)[C@H](c1ccccc1OCCO)N1[C@H](c3ccccc3)[C@H](c3ccccc3)OC(=O)[C@H]1[C@@H]2C(=O)N1CCN(c2ncccn2)CC1	condition met
COC(=O)[C@@]1(Cc2ccc(OC)cc2)[C@H]2c3cc(C(=O)N4CCCC4)n(Cc4ccc(OC)c(OC)c4)c3C[C@H]2CN1C(=O)c1ccccc1	condition met
[N-]=[N+]=NCc1ccccc1[C@@H]1OC(c2ccc(OCCCO)cc2)=N[C@]1(Cc1ccccc1N=[N+]=[N-])C(=O)N1CCOCC1	condition met
O=C1[C@H]2C=C(Br)[C@H](C[C@@H]2c2ccccc2)[C@@]12CO2	condition met
COc1ccc(C(O)C2C=CC3C(=O)NC(=O)C3N2Nc2ccccn2)c2ccccc12 (centres undefined)	condition met
CN1C(=O)C2C=CC(C(O)c3ccc(I)cc3)N(N3CCCCC3)C2C1=O (centres undefined)	condition met
O=C1OCCC=C[C@H]2OC34C=CCN(CCN5CCOCC5)C(=O)[C@H]3N(CCCCCCO)C(=O)[C@@H]4C12 (some centres undefined)	condition not met
C=CCOC(=O)[C@@H]1[C@H]2C(=O)O[C@H](c3ccccc3)[C@H](c3ccccc3)N2[C@H](c2ccc(OCCOC(=O)[C@@H]3C[C@@H]4C(=O)N5CCC[C@H]5C(=O)N4[C@@H]3c3ccc(O)cc3)cc2)[C@@]12C(=O)Nc1ccc(I)cc12	condition not met
CCCCCCC#C[Si](O[C@H](c1ccccc1)c1cn([C@H](CO)Cc2ccccc2)nn1)(C(C)C)C(C)C	condition not met
